Cited source for all entries: ChEMBL document CHEMBL1201862

subject of test: Voltage-gated inwardly rectifying potassium channel KCNH2 (Homo sapiens, UniProt Q12809)
Sequence (Q12809 whole entry): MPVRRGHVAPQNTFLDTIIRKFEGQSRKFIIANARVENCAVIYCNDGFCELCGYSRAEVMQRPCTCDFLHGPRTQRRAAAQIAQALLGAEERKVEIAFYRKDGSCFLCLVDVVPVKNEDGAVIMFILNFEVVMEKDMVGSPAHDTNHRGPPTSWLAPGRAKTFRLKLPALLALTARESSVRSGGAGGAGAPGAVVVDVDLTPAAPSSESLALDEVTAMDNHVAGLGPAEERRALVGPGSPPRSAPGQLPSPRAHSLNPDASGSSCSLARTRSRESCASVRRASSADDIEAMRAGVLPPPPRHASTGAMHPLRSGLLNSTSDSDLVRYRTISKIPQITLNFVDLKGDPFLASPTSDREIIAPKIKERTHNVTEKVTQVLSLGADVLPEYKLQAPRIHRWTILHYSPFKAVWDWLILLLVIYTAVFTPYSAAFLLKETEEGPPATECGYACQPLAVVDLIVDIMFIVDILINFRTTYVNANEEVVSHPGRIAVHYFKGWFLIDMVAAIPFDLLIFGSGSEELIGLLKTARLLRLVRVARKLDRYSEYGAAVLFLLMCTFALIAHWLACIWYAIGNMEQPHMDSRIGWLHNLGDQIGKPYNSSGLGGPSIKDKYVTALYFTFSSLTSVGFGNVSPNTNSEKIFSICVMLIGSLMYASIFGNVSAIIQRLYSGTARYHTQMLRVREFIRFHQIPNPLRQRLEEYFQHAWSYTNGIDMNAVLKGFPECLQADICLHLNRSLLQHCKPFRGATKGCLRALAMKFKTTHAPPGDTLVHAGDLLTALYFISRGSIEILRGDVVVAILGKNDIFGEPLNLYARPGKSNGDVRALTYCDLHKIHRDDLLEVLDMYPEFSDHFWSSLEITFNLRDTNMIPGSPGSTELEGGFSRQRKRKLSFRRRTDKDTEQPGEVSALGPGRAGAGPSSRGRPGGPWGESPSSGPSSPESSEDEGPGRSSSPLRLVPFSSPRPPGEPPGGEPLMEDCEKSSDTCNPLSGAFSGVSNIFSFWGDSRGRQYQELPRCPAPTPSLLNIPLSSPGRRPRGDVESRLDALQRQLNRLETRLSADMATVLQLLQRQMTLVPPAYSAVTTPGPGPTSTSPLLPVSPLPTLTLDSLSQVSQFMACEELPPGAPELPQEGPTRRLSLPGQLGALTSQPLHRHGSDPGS
experimental parameters: Potency
Structures can show the parent of a compound that is named as a salt.
# Lookup of reported AC50 keyed by entry

- compound: "CNCC(O)c1ccc(O)c(O)c1 (centres undefined) [RACEPINEPHRINE HYDROCHLORIDE]"
  subject of test: "Voltage-gated inwardly rectifying potassium channel KCNH2 (Homo sapiens, UniProt Q12809)"
  AC50: "12.6 µM (inconclusive)"

Exam item: Any idea what AC50 was measured for CN1C(=O)CCC1c1cccnc1 (centres undefined) ?
Marked response: 3.16 µM (inconclusive)

Exam item: Now the compound O=C(O)c1cc(O)c2ccc(Cl)cc2n1
Marked response: 6.31 µM (inconclusive)

Exam item: Try this compound next: C=CCOC(=O)CCCCCCCC
Marked response: 79.4 µM (inconclusive)

====

subject of test: Replicative DNA helicase DnaB (Mycobacterium tuberculosis, UniProt P9WMR3)
test protocol: DnaB intein splicing inhibitors, dose response, biochemical, cell-free fluorescence (AID 449749)
Assay type: functional
Active and inactive are the calls of the source.
Documented AC50 across a set of molecules

Consider the following illustrative entries.
- molecule: "Nc1ccc2[nH]cnc2c1"
  AC50: "2.92 µM (active)"
- molecule: "COC(CNC(=O)c1ccc2c3c(onc13)-c1ccccc1C2=O)OC"
  AC50: "3.06 µM (active)"
- molecule: "O=C(CCCN1C(=O)/C(=C\\c2cccs2)SC1=S)Nc1ccc(O)cc1C(=O)O"
  AC50: "17.7 µM (active)"

Exam item: Can you share its AC50? I mean this molecule: CCCc1n[nH]c2c1C(c1ccccc1OCC)C(C#N)=C(N)O2 (stereo not given)
Marked response: 237 µM (active)

====

subject of test: Heat shock factor protein 1 (Mus musculus)
Sequence (P38532 whole entry): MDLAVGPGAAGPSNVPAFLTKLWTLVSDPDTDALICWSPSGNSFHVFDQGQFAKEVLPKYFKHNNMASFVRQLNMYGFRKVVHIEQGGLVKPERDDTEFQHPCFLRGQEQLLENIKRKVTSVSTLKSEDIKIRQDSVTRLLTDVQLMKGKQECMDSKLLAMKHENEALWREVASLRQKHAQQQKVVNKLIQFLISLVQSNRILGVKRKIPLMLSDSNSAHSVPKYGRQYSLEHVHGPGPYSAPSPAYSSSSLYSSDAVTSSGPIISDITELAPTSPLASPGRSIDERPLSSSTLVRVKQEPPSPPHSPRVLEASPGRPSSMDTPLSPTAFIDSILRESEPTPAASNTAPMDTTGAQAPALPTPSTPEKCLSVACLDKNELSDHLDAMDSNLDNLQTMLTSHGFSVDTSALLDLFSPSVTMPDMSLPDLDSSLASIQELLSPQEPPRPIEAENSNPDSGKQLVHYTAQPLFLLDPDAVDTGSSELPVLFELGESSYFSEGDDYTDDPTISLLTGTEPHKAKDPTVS
test protocol: enhancement of HSF1-driven luciferase signal – cell-based, NIH3T3, luminescence, dose retest, confirmation (AID 435004);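 also: stress induced by proteasome inhibitor MG132 added 30 min after compound; luciferase reporter driven by HSF1 response element in NIH3T3 cells; actives raise luminescence as potentiators of the MG132 stress response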
Assay type: functional
The source made the active and inactive calls.
Permitted responses: 1 = active, 0 = inactive

- molecule: "CN(C)CCN1C(=O)C2C(C(=O)Nc3cc(Cl)cc(Cl)c3)C3C=CC2(O3)C1C(=O)NC1CCCCC1 (stereo not given)"
  category label: 0
- molecule: "C[C@H](CCC(=O)O)[C@H]1CC[C@H]2[C@@H]3CC[C@@H]4CC(=O)CC[C@]4(C)[C@H]3CC(=O)[C@]12C"
  category label: 0
- molecule: "CCC1C(=NO)C(CC)C(c2ccccc2)NC1c1ccccc1 (stereo not given)"
  category label: 0
- molecule: "COc1ccccc1C(=O)NCCCNC(=O)c1ccccn1"
  category label: 0

Exam item: Fill in: this test's call for Cc1ccc(S(=O)(=O)N(C)C)cc1NC(S)=NC(C)CCCC(C)C (stereo not given) is ___
Marked response: 0

Exam item: Try CC(c1ccc(F)cc1)n1c(S)nnc1Cn1ncc2ccccc2c1=O (stereo not given) next.
Marked response: 0

Exam item: What would you report for Cc1ccc2c(c1)/C(=C/c1ccc(F)cc1)C(=O)N2 ?
Marked response: 0

Exam item: And what about the molecule Cc1ccc(-c2cnc3cc(C)nn3c2)cc1 ?
Marked response: 0

Exam item: Same for COC(=O)/C(C#N)=C/c1c(N2CCCCCC2)nc2c(C)cccn2c1=O
Marked response: 0

Exam item: // repeat for COc1ccccc1-n1nnnc1S(=O)(=O)Cc1ccc(Cl)cc1 and report
Marked response: 1

====

subject of test: UniProt:P30556
Sequence (P30556 whole entry): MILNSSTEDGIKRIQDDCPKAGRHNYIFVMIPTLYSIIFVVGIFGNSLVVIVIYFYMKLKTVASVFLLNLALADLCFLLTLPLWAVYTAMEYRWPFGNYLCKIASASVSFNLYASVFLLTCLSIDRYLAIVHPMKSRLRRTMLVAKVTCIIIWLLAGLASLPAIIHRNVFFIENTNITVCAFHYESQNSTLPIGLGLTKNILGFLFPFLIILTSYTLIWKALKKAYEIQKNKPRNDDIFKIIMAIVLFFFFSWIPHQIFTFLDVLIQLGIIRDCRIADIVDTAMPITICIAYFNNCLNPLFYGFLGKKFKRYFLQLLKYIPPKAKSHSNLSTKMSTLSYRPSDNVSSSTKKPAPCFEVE
test protocol: antagonism of angiotensin II type 1 receptor – cell-based, uHTS hits, selectivity assay for APJ receptor antagonist project, dose response (AID 463214);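 also: antagonist potency against angiotensin II stimulated AT1 response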
Assay type: functional
Calls of active or inactive are those of the source.
endpoint name: IC50

Use these answered entries as a reference point.
- compound: "CC1=NC(Nc2nc(C)c3ccccc3n2)=NC(C)(C)C1"
  meas value: "13 µM (active)"
- compound: "CC(C)CCn1c(N)c(C(=O)OCC2CCCO2)c2nc3ccccc3nc21 (centres undefined)"
  meas value: "> 40 µM (not active)"
- compound: "Cc1ccc(-c2cc(-c3ccccc3)nc(NN)n2)cc1"
  meas value: "6.66 µM (active)"

Exam item: Bench note: what IC50 did Cc1ccc(-c2c(C(=O)N/N=C/c3cccc(Cl)c3)nnn2-c2nonc2N)cc1 show?
Marked response: > 40 µM (not active)

====

EC50 values by entry
Tested on: Streptococcus sp. 'group A'
test protocol: Streptococcus pyogenes SK(-)GAS viability under kanamycin – luminescence, BacTiterGlo, confirmation, counter-screen for streptokinase expression inhibitor project, dose response (AID 1900)
Type: functional, organism-based
Calls of active or inactive are those of the source.

Consider the reported EC50 for these compounds:
- compound: "NS(=O)(=O)c1ccc(N2N=C(c3ccc(Br)cc3)CC2c2ccc(F)cc2)cc1 (configuration not stated)"
  subject of test: "Streptococcus sp. 'group A'"
  EC50: "2620 nM (active)"
- compound: "CCCc1nnc(NC(=O)c2c(O)c3cccc4c3n(c2=O)CCC4)s1"
  subject of test: "Streptococcus sp. 'group A'"
  EC50: "2530 nM (active)"
- compound: "Cc1ccnc(NS(=O)(=O)c2ccc(NC(=O)c3cc(-c4ccc(Br)cc4)nc4ccccc34)cc2)n1"
  subject of test: "Streptococcus sp. 'group A'"
  EC50: "7740 nM (active)"

Exam item: EC50 of CC(C)n1nc(C(=O)Nc2nnc(SCc3c(Cl)cccc3Cl)s2)c2ccccc2c1=O on Streptococcus sp. 'group A'?
Marked response: 2090 nM (active)

Exam item: Next up: O=C(Nc1nc2ccc(SC(F)F)cc2s1)c1ccc(NS(=O)(=O)c2ccc(F)c(F)c2)cc1
Marked response: 2680 nM (active)

Exam item: Ok, now COc1ccc(NC(=O)c2cccc(-c3ccc(O)cc3)c2)cn1
Marked response: 16900 nM (active)

Exam item: Can you handle Nc1ccc2c(c1)C(=O)C(=O)c1ccccc1-2 next?
Marked response: 460 nM (active)

====

subject of test: Paired box protein Pax-8 (Homo sapiens, UniProt Q06710)
Sequence (Q06710 whole entry): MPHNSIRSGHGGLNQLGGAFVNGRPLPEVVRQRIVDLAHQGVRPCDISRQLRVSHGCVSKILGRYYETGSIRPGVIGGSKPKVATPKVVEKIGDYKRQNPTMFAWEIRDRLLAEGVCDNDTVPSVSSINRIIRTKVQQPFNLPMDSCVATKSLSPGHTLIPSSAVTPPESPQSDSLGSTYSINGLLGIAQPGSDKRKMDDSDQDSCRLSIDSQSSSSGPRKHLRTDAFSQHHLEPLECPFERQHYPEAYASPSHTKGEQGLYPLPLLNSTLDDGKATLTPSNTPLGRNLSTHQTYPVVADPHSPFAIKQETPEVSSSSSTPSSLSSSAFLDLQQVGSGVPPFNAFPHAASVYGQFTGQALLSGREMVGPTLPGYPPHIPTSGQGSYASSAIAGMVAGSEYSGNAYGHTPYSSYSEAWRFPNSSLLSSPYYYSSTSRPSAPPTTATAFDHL
test protocol: PAX8 transcriptional activity inhibition in RMG-I – RMG-I cells, luciferase, cherry-pick, dose response (AID 687027);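 also: luciferase reporter driven by Pax8 target thyroperoxidase promoter measured by SteadyGlo luminescence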
Assay type: functional, cell-based
Calls of active or inactive are those of the source.
# maps each entry to its AC50

The examples below pair each entry with its known result.
- smiles: "C[C@@H]1CCCCO[C@@H](CN(C)Cc2ccncc2)[C@H](C)CN([C@H](C)CO)C(=O)c2cc(NC(=O)Nc3ccc(C(F)(F)F)cc3)ccc2O1"
  endpoint name: "AC50"
  meas value: "6.48 µM (active)"
- smiles: "C[C@@H]1CCCCO[C@@H](CN(C)C(=O)C2CCCCC2)[C@H](C)CN([C@H](C)CO)C(=O)c2cc(NC(=O)Nc3ccc(F)cc3)ccc2O1"
  endpoint name: "AC50"
  meas value: "8.22 µM (active)"

Exam item: Any idea what AC50 was measured for N#Cc1cccc(-c2ccc3c(c2)[C@@H]2[C@@H](CCN2S(=O)(=O)c2ccc(F)cc2)[C@@H](CO)N3)c1 ?
Marked response: 6.61 µM (active)

Exam item: For C[C@@H]1CCCCO[C@@H](CN(C)Cc2ccc(Cl)c(Cl)c2)[C@H](C)CN([C@@H](C)CO)C(=O)c2cc(NS(=O)(=O)c3ccc(Cl)cc3)ccc2O1 then?
Marked response: 7 µM (active)

Exam item: Can you check C[C@H](CO)N1C[C@H](C)[C@H](CN(C)Cc2ccc(Cl)c(Cl)c2)OCCCC[C@H](C)Oc2ccc(NC(=O)Nc3ccccc3)cc2C1=O next?
Marked response: 11.9 µM (active)

Exam item: Would you kindly repeat that for C[C@H]1CCCCO[C@@H](CN(C)S(=O)(=O)c2cccs2)[C@@H](C)CN([C@@H](C)CO)C(=O)c2cc(NC(=O)NC3CCCCC3)ccc2O1 ?
Marked response: 4.79 µM (active)

====

subject of test: Nucleotide-binding oligomerization domain-containing protein 1 (Homo sapiens)
Sequence (Q9Y239 whole entry, the tested form may be a part): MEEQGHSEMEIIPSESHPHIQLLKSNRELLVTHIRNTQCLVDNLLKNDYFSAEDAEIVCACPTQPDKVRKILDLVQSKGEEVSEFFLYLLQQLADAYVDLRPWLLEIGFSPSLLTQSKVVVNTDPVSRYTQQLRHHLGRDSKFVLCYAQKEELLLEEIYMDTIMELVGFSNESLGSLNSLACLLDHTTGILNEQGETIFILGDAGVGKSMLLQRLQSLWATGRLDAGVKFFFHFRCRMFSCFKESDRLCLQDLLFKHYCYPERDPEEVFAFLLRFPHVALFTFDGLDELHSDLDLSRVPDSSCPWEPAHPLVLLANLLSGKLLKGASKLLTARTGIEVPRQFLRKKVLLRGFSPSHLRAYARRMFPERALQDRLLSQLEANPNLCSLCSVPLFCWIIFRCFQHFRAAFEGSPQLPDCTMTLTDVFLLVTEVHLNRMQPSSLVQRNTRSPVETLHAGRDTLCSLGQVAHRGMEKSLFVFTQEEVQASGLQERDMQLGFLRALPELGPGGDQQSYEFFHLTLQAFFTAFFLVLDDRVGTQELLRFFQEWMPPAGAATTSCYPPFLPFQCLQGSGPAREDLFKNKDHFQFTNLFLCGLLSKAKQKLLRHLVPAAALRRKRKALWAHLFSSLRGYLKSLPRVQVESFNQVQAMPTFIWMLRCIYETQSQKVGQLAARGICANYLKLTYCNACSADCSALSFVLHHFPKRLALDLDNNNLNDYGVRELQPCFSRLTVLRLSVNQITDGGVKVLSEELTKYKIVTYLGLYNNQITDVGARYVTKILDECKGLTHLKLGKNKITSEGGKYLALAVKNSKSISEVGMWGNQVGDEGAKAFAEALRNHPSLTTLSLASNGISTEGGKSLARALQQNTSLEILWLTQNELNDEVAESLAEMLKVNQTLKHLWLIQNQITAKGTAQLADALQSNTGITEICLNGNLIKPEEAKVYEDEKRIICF
test protocol: blockers of NOD1 pathway activity – revised, SAR follow-up (AID 2333)
Assay type: functional
Calls of active or inactive are those of the source.
// classify into active, inactive

// below: answered molecules
- molecule: "COC(=O)c1c(NC(=O)c2cccc(F)c2)sc2c1CCC(C)C2 (centres undefined)"
  category label: "inactive"
- molecule: "CC(C)(C)C(=O)/N=C(\\N)Nc1nc2ccccc2o1"
  category label: "inactive"
- molecule: "Cc1ccc(C)c(SCC(=O)OC/C(O)=C(\\C#N)c2nc3ccccc3[nH]2)c1"
  category label: "inactive"

Exam item: Would you mind telling me which call this test gave CC1CCc2c(sc(NC(=O)/C=C/c3cccs3)c2C(=O)O)C1 (centres undefined) ?
Marked response: active
